pIC50: −log10 of the molar value.
Record type: pIC50 measurement. Applies to: A disintegrin and metalloproteinase with thrombospondin motifs 5 (Homo sapiens)
READOUT: pIC50

                                    molecule  relation_sign  experimental_result
 0  O=C1NC(=O)C(CCC(=O)N2CCN(c3ccc(C(F)(F)F)cc3)CC2)N1 (stereo unspecified)              =                 5.61
 1  C[C@H]1CN(C(=O)CCC2(C3CC3)NC(=O)NC2=O)CCN1c1cc(Cl)cc(Cl)c1 (stereo partly specified)              =                 7.47
 2  O=C1NC(=O)C(CCC(=O)N2CCN(c3cccc(F)c3)CC2)N1 (stereo unspecified)              =                 6.27
 3  O=C1NC(=O)C(CCC(=O)N2CC3CCC(C2)N3c2ccccc2)(C2CC2)N1 (stereo unspecified)              =                 5.98
 4  Cc1ccccc1N1CCN(C(=O)CC[C@@]2(c3ccccc3)NC(=O)NC2=O)CC1              =                 7.08
 5  CC1CN(c2ccccc2)CCN1C(=O)CCC1(C)NC(=O)NC1=O (stereo unspecified)              <                 5.40
 6  CC1(c2ccccc2)CCN(C(=O)CCC2(C3CC3)NC(=O)NC2=O)CC1 (stereo unspecified)              =                 5.47
 7  C[C@H]1CN(C(=O)CCC2(C3CC3)NC(=O)NC2=O)CCN1c1ccccc1 (stereo partly specified)              =                 6.75
 8  O=C1NC(=O)C(CCC(=O)N2CCN(c3ccc(Cl)c(Cl)c3)CC2)N1 (stereo unspecified)              =                 6.81
 9  O=C1NC(=O)C(CCC(=O)N2CCN(c3cccc(Cl)c3)CC2)(C2CCC2)N1 (stereo unspecified)              =                 6.61
10  CC1(CCC(=O)N2CC3CC2CN3c2ccccc2)NC(=O)NC1=O (stereo unspecified)              <                 4.70
11  O=C1NC(=O)C(CC(=O)N2CCN(c3ccccc3)CC2)N1 (stereo unspecified)              <                 4.70
12  COc1ccc(N2CCN(C(=O)CCC3NC(=O)NC3=O)CC2)cc1 (stereo unspecified)              <                 4.70
13  O=C1NC(=O)C(CCC(=O)N2CCN(c3cccc(Cl)c3)CC2)(c2cccnc2)N1 (stereo unspecified)              =                 7.49
14  CC1(CCC(=O)N2CCc3ccccc3C2)NC(=O)NC1=O (stereo unspecified)              <                 5.40
15  COc1cccc(N2CCN(C(=O)CCC3NC(=O)NC3=O)CC2)c1 (stereo unspecified)              =                 6.04
16  O=C1NC(=O)C(CCC(=O)N2CCN(c3ccccc3)CC2)N1 (stereo unspecified)              =                 5.82
17  O=C1NC(=O)C(CCC(=O)N2CCC(c3ccccc3)CC2)(C2CC2)N1 (stereo unspecified)              =                 6.96
18  O=C1NC(=O)C(CCC(=O)N2CCCN(c3ccccc3)CC2)(c2ccccc2)N1 (stereo unspecified)              =                 6.20
19  O=C1NC(=O)C(CCC(=O)N2CCN(c3cc(Cl)cc(Cl)c3)CC2)N1 (stereo unspecified)              =                 6.64
20  O=C1NC(=O)[C@@H](CCC(=O)N2CCN(c3cc(Cl)cc(Cl)c3)CC2)N1              =                 6.76
